Data origin, for the record: paper PMC3197605

molecular target: arginase (RocF) (Helicobacter pylori); construct: gene HP_1399; RocF with C-terminal His6 tag, apo form, expressed in E. coli BL21 (DE3); experiment: colorimetric arginase assay (ninhydrin detection of L-ornithine), purified apo-RocF heat-activated with Co2+, pH […]; type: biochemical; conditions: read-out: IC50
Sequence (O25949 entry or part of it): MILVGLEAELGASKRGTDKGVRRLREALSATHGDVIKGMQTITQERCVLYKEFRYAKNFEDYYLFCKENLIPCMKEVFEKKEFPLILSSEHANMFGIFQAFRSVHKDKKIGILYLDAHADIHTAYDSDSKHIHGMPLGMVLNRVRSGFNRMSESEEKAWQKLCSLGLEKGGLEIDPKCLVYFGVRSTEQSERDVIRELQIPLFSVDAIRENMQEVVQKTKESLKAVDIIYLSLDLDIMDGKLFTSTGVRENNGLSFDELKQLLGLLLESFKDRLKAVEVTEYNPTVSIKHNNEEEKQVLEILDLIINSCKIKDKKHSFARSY
pIC50: −log10 of the molar value.
Parameter: pIC50

compound="N=C(NO)NCC[C@H](N)C(=O)O [nor-NOHA]" endpoint_result=3.30
